- TESTED_SYSTEM: BRG-1 (Homo sapiens)
- Construct: made in house; host or cells: High Five insect cells
- Sequence (P51532 whole entry): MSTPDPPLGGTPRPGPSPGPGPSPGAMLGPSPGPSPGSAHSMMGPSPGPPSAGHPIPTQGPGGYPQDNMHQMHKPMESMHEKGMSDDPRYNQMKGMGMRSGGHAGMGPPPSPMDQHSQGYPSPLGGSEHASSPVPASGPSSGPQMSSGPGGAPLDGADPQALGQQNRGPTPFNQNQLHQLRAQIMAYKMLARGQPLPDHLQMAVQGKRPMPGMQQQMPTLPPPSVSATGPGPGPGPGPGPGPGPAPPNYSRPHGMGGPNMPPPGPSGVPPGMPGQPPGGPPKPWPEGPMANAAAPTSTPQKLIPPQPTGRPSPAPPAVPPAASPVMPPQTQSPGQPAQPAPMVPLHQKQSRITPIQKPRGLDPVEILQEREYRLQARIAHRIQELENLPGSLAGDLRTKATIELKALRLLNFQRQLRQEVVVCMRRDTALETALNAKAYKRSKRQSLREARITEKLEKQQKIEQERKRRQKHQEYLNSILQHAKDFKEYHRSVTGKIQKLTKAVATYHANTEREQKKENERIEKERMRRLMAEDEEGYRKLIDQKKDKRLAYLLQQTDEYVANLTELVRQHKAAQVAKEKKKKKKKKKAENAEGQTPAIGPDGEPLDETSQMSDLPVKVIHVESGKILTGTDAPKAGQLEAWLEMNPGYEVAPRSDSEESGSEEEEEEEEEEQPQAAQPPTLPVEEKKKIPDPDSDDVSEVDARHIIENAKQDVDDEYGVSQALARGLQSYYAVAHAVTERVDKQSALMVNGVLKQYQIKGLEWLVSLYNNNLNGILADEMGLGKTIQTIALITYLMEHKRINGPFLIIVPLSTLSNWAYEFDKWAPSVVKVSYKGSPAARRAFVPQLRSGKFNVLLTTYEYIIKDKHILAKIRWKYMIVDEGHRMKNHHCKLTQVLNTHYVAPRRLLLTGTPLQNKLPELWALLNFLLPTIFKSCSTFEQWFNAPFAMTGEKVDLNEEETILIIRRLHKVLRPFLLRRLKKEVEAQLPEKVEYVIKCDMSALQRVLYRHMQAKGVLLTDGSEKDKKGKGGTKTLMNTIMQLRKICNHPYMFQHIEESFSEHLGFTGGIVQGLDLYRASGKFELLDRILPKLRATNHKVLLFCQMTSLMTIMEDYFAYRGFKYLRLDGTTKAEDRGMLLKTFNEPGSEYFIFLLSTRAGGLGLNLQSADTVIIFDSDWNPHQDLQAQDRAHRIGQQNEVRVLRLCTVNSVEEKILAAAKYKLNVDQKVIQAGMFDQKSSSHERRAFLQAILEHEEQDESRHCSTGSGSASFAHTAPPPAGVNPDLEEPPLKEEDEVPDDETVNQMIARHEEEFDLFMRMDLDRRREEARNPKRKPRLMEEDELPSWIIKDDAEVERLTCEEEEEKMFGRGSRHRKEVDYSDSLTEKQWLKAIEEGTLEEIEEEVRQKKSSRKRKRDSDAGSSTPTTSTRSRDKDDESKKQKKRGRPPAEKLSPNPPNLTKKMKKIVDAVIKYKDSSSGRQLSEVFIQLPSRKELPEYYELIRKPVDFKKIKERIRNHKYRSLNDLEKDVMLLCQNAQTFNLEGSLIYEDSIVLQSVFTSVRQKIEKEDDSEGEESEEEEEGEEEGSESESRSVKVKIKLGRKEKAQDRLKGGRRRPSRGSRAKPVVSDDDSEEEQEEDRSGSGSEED
- EXPERIMENT_NOTES: ATPase catalytic activity of BRG-1, ADP-Glo in vitro biochemical assay
- CONDITION_NOTES: ATPase catalytic activity, 30 nM BRG-1, 400 μM ATP, read-out: BRG1 IP50 (μM)*
Consider the following molecules; for each one, report its IC50.

Fill in: IC50 of COC[C@H](NC(=O)c1ccn(C(C)(C)C)c1)C(=O)Nc1nc(-c2cccc(-c3ccncn3)c2)cs1 is ___
> 0.01 µM

Fill in: IC50 of C[C@@H]1CN(c2cc(F)cc(-c3csc(NC(=O)CNC(=O)c4ccn(S(C)(=O)=O)c4)n3)c2)C[C@H](C)O1 is ___
< 0.01 µM

Fill in: IC50 of C[C@@H]1CN(c2cccc(-c3csc(NC(=O)[C@H](CO)NC(=O)c4ccn(C5(C)COC5)c4)n3)n2)C[C@H](C)O1 is ___
> 0.01 µM

Fill in: IC50 of CC(C)(C)n1cc(C(=O)NCC(=O)Nc2nc(-c3cccc(C#N)c3)cs2)cn1 is ___
> 1 µM

Fill in: IC50 of CO[C@H]1CCN(c2cccc(-c3csc(NC(=O)CNC(=O)c4ccn(S(C)(=O)=O)c4)n3)c2)C1 is ___
> 0.01 µM

Fill in: IC50 of C[C@H]1CN(c2cccc(-c3csc(NC(=O)CNC(=O)c4ccn(S(C)(=O)=O)c4)n3)c2)[C@@H](C)CO1 is ___
> 0.1 µM

Fill in: IC50 of Cc1cn(-c2cccc(-c3csc(NC(=O)CNC(=O)c4ccn(S(C)(=O)=O)c4)n3)c2)cn1 is ___
> 0.01 µM

Taken from patent US20230079819A1.
